System: PANC-1
MEASUREMENT_NOTES: cells
Design: Viability of PDAC cell lines, ATPlite luminescence, 11-dose single-agent curve fit
CONDITION_LABEL: Homo sapiens, PANC-1, 72 h, read-out: EC50 [nM]
OBSERVATION_TYPE: EC50 (nM)

CONC(=O)c1ccccc1Nc1cc(Nc2cc(C)nn2C(C)C)ncc1Cl = 804

I. CNC(=O)c1cccc2cc(Oc3ccnc4cc(OCC5(N)CC5)c(OC)cc34)ccc12
II. CC(C)Oc1ccc(-c2nn([C@@H](C)c3oc4ccc(F)cc4c(=O)c3-c3cccc(F)c3)c3ncnc(N)c23)cc1F
Prompt: Which value of EC50 is numerically greater: that of I or that of II ? Response format: the label of the selected entry.
Response: I

* * *

System: PANC-1
MEASUREMENT_NOTES: cells
Parameters: Viability of PDAC cell lines, ATPlite luminescence, 11-dose single-agent curve fit
CONDITION_LABEL: Homo sapiens, PANC-1, 72 h, read-out: EC50 [nM]
From the text: Afterward, small amounts were transferred to 384-well intermediate plates (Greiner Bio-One GmbH, Germany). […] Next, we analyzed the drug sensitivity of immortalized duct cell line HPDE to detect effects unrelated to pancreatic cancer.
OBSERVATION_TYPE: EC50 (nM)

1. Cc1cc2cc(Oc3ccnc(Nc4cccc(CS(=O)(=O)NCCN(C)C)c4)n3)ccc2[nH]1
2. CN1CCN(CCOc2cc(OC3CCOCC3)c3c(Nc4c(Cl)ccc5c4OCO5)ncnc3c2)CC1
3. Cc1cn(-c2cc(NC(=O)c3ccc(C)c(Nc4nccc(-c5cnccn5)n4)c3)cc(C(F)(F)F)c2)cn1
4. Cc1nc(Nc2ncc(C(=O)Nc3c(C)cccc3Cl)s2)cc(N2CCN(CCO)CC2)n1
5. CN1CC[C@@H](NC(=O)Nc2ccc(C#N)cc2)C[C@@H]1c1nc2ccccc2[nH]1
Prompt: Lab note: order the above by reported EC50, lowest first, highest last. The response must list the labels following the requested ordering.
Response: 2, 3, 4, 5, 1
(2: 142 nM, 3: 260 nM, 4: 446 nM, 5: 2580 nM, 1: 7980 nM)

A. CO[C@H]1C[C@@H]2CC[C@@H](C)[C@@](O)(O2)C(=O)C(=O)N2CCCC[C@H]2C(=O)O[C@H]([C@H](C)C[C@@H]2CC[C@@H](OCCO)[C@H](OC)C2)CC(=O)[C@H](C)/C=C(\C)[C@@H](O)[C@@H](OC)C(=O)[C@H](C)C[C@H](C)/C=C/C=C/C=C/1C
B. CCN1CCN(Cc2ccc(Nc3ncc(F)c(-c4cc(F)c5nc(C)n(C(C)C)c5c4)n3)nc2)CC1
C. CO[C@H]1C[C@@H]2CC[C@@H](C)[C@@](O)(O2)C(=O)C(=O)N2CCCC[C@H]2C(=O)O[C@H]([C@H](C)C[C@@H]2CC[C@@H](O)[C@H](OC)C2)CC(=O)[C@H](C)/C=C(\C)[C@@H](O)[C@@H](OC)C(=O)[C@H](C)C[C@H](C)/C=C/C=C/C=C/1C
D. C=CC(=O)N1CCC[C@@H](n2nc(-c3ccc(Oc4ccccc4)cc3)c3c(N)ncnc32)C1
E. O=C(Nc1nc2cccc(-c3ccc(CN4CCS(=O)(=O)CC4)cc3)n2n1)C1CC1
Prompt: Please put the entries in order of rising EC50. The response must list the labels following the requested ordering.
Response: C, E, A, D, B
(C: 4.67 nM, E: 43.9 nM, A: 171 nM, D: 1170 nM, B: 5540 nM)

A. O=C(/C=C\n1cnc(-c2cc(C(F)(F)F)cc(C(F)(F)F)c2)n1)NNc1cnccn1 [Selinexor]
B. Cn1cc(C2=C(c3cn(C4CCN(Cc5ccccn5)CC4)c4ccccc34)C(=O)NC2=O)c2ccccc21
C. CCN(CCCOc1ccc2c(Nc3cc(CC(=O)Nc4cccc(F)c4)[nH]n3)ncnc2c1)CCOP(=O)(O)O
D. CC(=O)Nc1cccc(-n2c(=O)n(C3CC3)c(=O)c3c(Nc4ccc(I)cc4F)n(C)c(=O)c(C)c32)c1
Prompt: Order the items by recorded EC50; the first position goes to the largest value. The response must list the labels following the requested ordering.
Response: B, A, C, D
(B: 4980 nM, A: 182 nM, C: 74 nM, D: 45.6 nM)

A. CNC(=O)c1ccc(Nc2ncc(C(F)(F)F)c(NCc3nccnc3N(C)S(C)(=O)=O)n2)cc1
B. COCc1c(-c2cc3cc(C)cc(OC)c3s2)c2c(N)ncnn2c1CN1CCNC(=O)C1
C. CCc1cc2c(cc1N1CCC(N3CCOCC3)CC1)C(C)(C)c1[nH]c3cc(C#N)ccc3c1C2=O
D. CC[C@@H]1CN(C(=O)NCC(F)(F)F)C[C@@H]1c1cnc2cnc3[nH]ccc3n12
Prompt: Please put the entries in order of rising EC50. The response must list the labels following the requested ordering.
Response: C, A, D, B
(C: 80.3 nM, A: 142 nM, D: 215 nM, B: 3980 nM)

I. O=C(Nc1ccc(OC(F)(F)Cl)cc1)c1cnc(N2CC[C@@H](O)C2)c(-c2cc[nH]n2)c1
II. CN(C)C[C@@H]1CCn2cc(c3ccccc32)C2=C(C(=O)NC2=O)c2cn(c3ccccc23)CCO1
III. NC(=O)c1cnc2[nH]ccc2c1N[C@@H]1[C@@H]2CC3C[C@H]1C[C@@](O)(C3)C2
IV. Cn1cnc2c(F)c(Nc3ccc(Br)cc3Cl)c(C(=O)NOCCO)cc21
Prompt: Order the items by recorded EC50; the first position goes to the largest value. The response must list the labels following the requested ordering.
Response: I, II, III, IV
(I: 4520 nM, II: 1620 nM, III: 282 nM, IV: 87.4 nM)
